system: ChaGo-K-1; assay: relative viability (nuclei count vs DMSO), 5 days (fraction); higher = more cells survive; conditions: first compound 0.08 µM
Label true when relative viability < 0.6; otherwise false.

O=c1[nH]c2ccccc2n1C1CCN(CCCC(c2ccc(F)cc2)c2ccc(F)cc2)CC1 [Pimozide] + O=C(c1cc(Cc2n[nH]c(=O)c3ccccc23)ccc1F)N1CCN(C(=O)C2CC2)CC1 [Olaparib] (partner 8 µM) :: true
O=c1[nH]c2ccccc2n1C1CCN(CCCC(c2ccc(F)cc2)c2ccc(F)cc2)CC1 [Pimozide] + C[C@@H](Oc1cc(-c2cnn(C3CCNCC3)c2)cnc1N)c1c(Cl)ccc(F)c1Cl [Crizotinib] (partner 1 µM) :: false
Cc1cnc(-c2cnc(NCCNc3ccc(C#N)cn3)nc2-c2ccc(Cl)cc2Cl)[nH]1 + Cc1cc(Nc2cc(N3CCN(C)CC3)nc(Sc3ccc(NC(=O)C4CC4)cc3)n2)n[nH]1 [Tozasertib] (partner 0.1 µM) :: true
O=c1[nH]c2ccccc2n1C1CCN(CCCC(c2ccc(F)cc2)c2ccc(F)cc2)CC1 [Pimozide] + Nc1ncn([C@H]2C[C@H](O)[C@@H](CO)O2)c(=O)n1 [Decitabine] (partner 2 µM) :: true

====

test system: COR-L 105; test: relative viability (nuclei count vs DMSO), 5 days (fraction); higher = more cells survive; conditions: first compound 8 µM
recorded.endpoint: relative viability

O=c1[nH]c2ccccc2n1C1CCN(CCCC(c2ccc(F)cc2)c2ccc(F)cc2)CC1 [Pimozide] + Cc1nc(NC(=O)N2CCC[C@H]2C(N)=O)sc1-c1ccnc(C(C)(C)C(F)(F)F)c1 [Alpelisib] (partner 2 µM) :: 0.608
O=c1[nH]c2ccccc2n1C1CCN(CCCC(c2ccc(F)cc2)c2ccc(F)cc2)CC1 [Pimozide] + COc1cc2c(Oc3ccc(NC(=O)C4(C(=O)Nc5ccc(F)cc5)CC4)cc3F)ccnc2cc1OCCCN1CCOCC1 [Foretinib] (partner 0.25 µM) :: 0.779
O=c1[nH]c2ccccc2n1C1CCN(CCCC(c2ccc(F)cc2)c2ccc(F)cc2)CC1 [Pimozide] + Nc1ncn([C@H]2C[C@H](O)[C@@H](CO)O2)c(=O)n1 [Decitabine] (partner 2 µM) :: 0.701
O=c1[nH]c2ccccc2n1C1CCN(CCCC(c2ccc(F)cc2)c2ccc(F)cc2)CC1 [Pimozide] + CC(=O)Nc1cccc(-n2c(=O)n(C3CC3)c(=O)c3c(Nc4ccc(I)cc4F)n(C)c(=O)c(C)c32)c1 [Trametinib] (partner 0.02 µM) :: 0.779
O=c1[nH]c2ccccc2n1C1CCN(CCCC(c2ccc(F)cc2)c2ccc(F)cc2)CC1 [Pimozide] + CC1(C)CCC(c2ccc(Cl)cc2)=C(CN2CCN(c3ccc(C(=O)NS(=O)(=O)c4ccc(N[C@H](CCN5CCOCC5)CSc5ccccc5)c(S(=O)(=O)C(F)(F)F)c4)cc3)CC2)C1 [Navitoclax] (partner 0.5 µM) :: 0.645
O=c1[nH]c2ccccc2n1C1CCN(CCCC(c2ccc(F)cc2)c2ccc(F)cc2)CC1 [Pimozide] + O=C(c1cc(Cc2n[nH]c(=O)c3ccccc23)ccc1F)N1CCN(C(=O)C2CC2)CC1 [Olaparib] (partner 8 µM) :: 0.664

====

test system: SW 1573; assay: relative viability (nuclei count vs DMSO), 5 days (fraction); higher = more cells survive; conditions: first compound 4 µM
recorded.endpoint: relative viability

Cc1sc2c(c1C)C(c1ccc(Cl)cc1)=N[C@@H](CC(=O)OC(C)(C)C)c1nnc(C)n1-2 [JQ1] + C[C@@H](Oc1cc(-c2cnn(C3CCNCC3)c2)cnc1N)c1c(Cl)ccc(F)c1Cl [Crizotinib] (partner 1 µM) :: 0.385
Cc1sc2c(c1C)C(c1ccc(Cl)cc1)=N[C@@H](CC(=O)OC(C)(C)C)c1nnc(C)n1-2 [JQ1] + CS(=O)(=O)CCNCc1ccc(-c2ccc3ncnc(Nc4ccc(OCc5cccc(F)c5)c(Cl)c4)c3c2)o1 [Lapatinib] (partner 2 µM) :: 0.512
Cc1sc2c(c1C)C(c1ccc(Cl)cc1)=N[C@@H](CC(=O)OC(C)(C)C)c1nnc(C)n1-2 [JQ1] + CCNC(=O)c1noc(-c2cc(C(C)C)c(O)cc2O)c1-c1ccc(CN2CCOCC2)cc1 [Luminespib] (partner 0.01 µM) :: 0.0908
Cc1sc2c(c1C)C(c1ccc(Cl)cc1)=N[C@@H](CC(=O)OC(C)(C)C)c1nnc(C)n1-2 [JQ1] + Nc1ncn([C@H]2C[C@H](O)[C@@H](CO)O2)c(=O)n1 [Decitabine] (partner 2 µM) :: 0.275

====

tested on: A549; assay: relative viability (nuclei count vs DMSO), 5 days (fraction); higher = more cells survive; settings: first compound 0.05 µM
recorded.endpoint: relative viability

COc1cc2nccc(Oc3ccc(NC(=O)Nc4cc(C)on4)c(Cl)c3)c2cc1OC [Tivozanib] + CC1(C)CCC(c2ccc(Cl)cc2)=C(CN2CCN(c3ccc(C(=O)NS(=O)(=O)c4ccc(N[C@H](CCN5CCOCC5)CSc5ccccc5)c(S(=O)(=O)C(F)(F)F)c4)cc3)CC2)C1 [Navitoclax] (partner 0.5 µM) :: 1.14
Nc1ccn([C@@H]2O[C@H](CO)[C@@H](O)[C@@H]2O)c(=O)n1 [Cytarabine] + Nc1ncn([C@H]2C[C@H](O)[C@@H](CO)O2)c(=O)n1 [Decitabine] (partner 2 µM) :: 0.161
COc1cc2nccc(Oc3ccc(NC(=O)Nc4cc(C)on4)c(Cl)c3)c2cc1OC [Tivozanib] + Cc1nc(NC(=O)N2CCC[C@H]2C(N)=O)sc1-c1ccnc(C(C)(C)C(F)(F)F)c1 [Alpelisib] (partner 2 µM) :: 0.793
Nc1ccn([C@@H]2O[C@H](CO)[C@@H](O)[C@@H]2O)c(=O)n1 [Cytarabine] + CS(=O)(=O)N1CCN(Cc2cc3nc(-c4cccc5[nH]ncc45)nc(N4CCOCC4)c3s2)CC1 [Pictilisib] (partner 1 µM) :: 0.539
COc1cc2nccc(Oc3ccc(NC(=O)Nc4cc(C)on4)c(Cl)c3)c2cc1OC [Tivozanib] + C[C@]1(O)C[C@@H](c2nc(-c3ccc4ccc(-c5ccccc5)nc4c3)c3c(N)nccn32)C1 [Linsitinib] (partner 1 µM) :: 0.625
COc1cc2nccc(Oc3ccc(NC(=O)Nc4cc(C)on4)c(Cl)c3)c2cc1OC [Tivozanib] + O=C(c1cc(Cc2n[nH]c(=O)c3ccccc23)ccc1F)N1CCN(C(=O)C2CC2)CC1 [Olaparib] (partner 8 µM) :: 0.398
COc1cc2nccc(Oc3ccc(NC(=O)Nc4cc(C)on4)c(Cl)c3)c2cc1OC [Tivozanib] + Nc1ncn([C@H]2C[C@H](O)[C@@H](CO)O2)c(=O)n1 [Decitabine] (partner 2 µM) :: 0.223

====

system: NCI-H1915; assay: relative viability (nuclei count vs DMSO), 5 days (fraction); higher = more cells survive; conditions: first compound 0.01581 µM
// values below are reported relative viability
recorded.endpoint: relative viability

Nc1ccn([C@@H]2O[C@H](CO)[C@@H](O)[C@@H]2O)c(=O)n1 [Cytarabine] + C[C@]1(O)C[C@@H](c2nc(-c3ccc4ccc(-c5ccccc5)nc4c3)c3c(N)nccn32)C1 [Linsitinib] (partner 1 µM) :: 0.979
COc1cc2nccc(Oc3ccc(NC(=O)Nc4cc(C)on4)c(Cl)c3)c2cc1OC [Tivozanib] + CS(=O)(=O)CCNCc1ccc(-c2ccc3ncnc(Nc4ccc(OCc5cccc(F)c5)c(Cl)c4)c3c2)o1 [Lapatinib] (partner 2 µM) :: 0.928
COc1cc2nccc(Oc3ccc(NC(=O)Nc4cc(C)on4)c(Cl)c3)c2cc1OC [Tivozanib] + O=C(CCCCCCC(=O)Nc1ccccc1)NO [Vorinostat] (partner 1 µM) :: 0.503
Nc1ccn([C@@H]2O[C@H](CO)[C@@H](O)[C@@H]2O)c(=O)n1 [Cytarabine] + Cc1nc(Nc2ncc(C(=O)Nc3c(C)cccc3Cl)s2)cc(N2CCN(CCO)CC2)n1 [Dasatinib] (partner 0.075 µM) :: 0.29
Nc1ccn([C@@H]2O[C@H](CO)[C@@H](O)[C@@H]2O)c(=O)n1 [Cytarabine] + CC(C)C[C@H](NC(=O)[C@H](Cc1ccccc1)NC(=O)c1cnccn1)B(O)O [Bortezomib] (partner 0.002 µM) :: 0.952

====

test system: EMC-BAC-2; assay: relative viability (nuclei count vs DMSO), 5 days (fraction); higher = more cells survive; details: first compound 0.1265 µM
recorded.endpoint: relative viability

Cc1sc2c(c1C)C(c1ccc(Cl)cc1)=N[C@@H](CC(=O)OC(C)(C)C)c1nnc(C)n1-2 [JQ1] + C[C@]1(O)C[C@@H](c2nc(-c3ccc4ccc(-c5ccccc5)nc4c3)c3c(N)nccn32)C1 [Linsitinib] (partner 1 µM) :: 0.812
Cc1sc2c(c1C)C(c1ccc(Cl)cc1)=N[C@@H](CC(=O)OC(C)(C)C)c1nnc(C)n1-2 [JQ1] + Nc1nc2[nH]cc(CCc3ccc(C(=O)N[C@@H](CCC(=O)O)C(=O)O)cc3)c2c(=O)[nH]1 [Pemetrexed] (partner 0.2 µM) :: 0.369
Cc1sc2c(c1C)C(c1ccc(Cl)cc1)=N[C@@H](CC(=O)OC(C)(C)C)c1nnc(C)n1-2 [JQ1] + CS(=O)(=O)CCNCc1ccc(-c2ccc3ncnc(Nc4ccc(OCc5cccc(F)c5)c(Cl)c4)c3c2)o1 [Lapatinib] (partner 2 µM) :: 0.905
Cc1sc2c(c1C)C(c1ccc(Cl)cc1)=N[C@@H](CC(=O)OC(C)(C)C)c1nnc(C)n1-2 [JQ1] + C[C@@H](Oc1cc(-c2cnn(C3CCNCC3)c2)cnc1N)c1c(Cl)ccc(F)c1Cl [Crizotinib] (partner 1 µM) :: 0.651

Data credit: the supplement of paper PMC10307832
